# IC50 annotations
Target: IN v2 variant RBD (R319-F541 with L452R, T478K) (SARS-CoV-2, UniProt P0DTC2 319-541)
Experiment: lateral flow NC50, RBD-AuNP vs immobilised ACE2
State the answer as a number, implicitly in µg/mL.

| binder | IC50, µg/mL |
| --- | --- |
| 1035740 (antibody, V domains shown) VH: EVLLQQSGPELVKPGASVKIPCKASGYTFTDYNMDWVKQSHGKSLEWIGDINPNNGFTIYNQKFKGKATLTVDKSSSTAYMELRSLTSEDTAVYYCAREGYGNYFDYWGQGTTLTVSS VL: DVLLTQSPAILSVSPGERVSFSCRASQSIGTSLHWYQQRTNGSPRLLIKYVSESISGIPSRFSGSGSGTDFTLSINSVESEDIADYYCQQSSSWPTTFGAGTKLELK | 1.61 |
| 1035762 (antibody, V domains shown) VH: EVQLQQSGPELVKPGASVKISCKTSGYTFTEYTMHWVKQSHGKSLEWIGGINPNNGDTGYNQKFKGKATLTVDKSSSTAYMELRSLTFEDSAVYYCARDGYPLYYAMDYWGQGTSVTVSS VL: DIQMTQSPSSLSASLGERVSLTCRASQEISGYLCWLQQKPDGTIKRLIYAASTLDSAVPKRFSGSRSGSDYSLTISSLESEDFADFYCLQYASYPWTFGGGTKLEIK | 2.57 |

Incoming: Look at this binder and give its reported IC50. 1035419 (antibody, V domains shown) VH: QVQLKQSGAELVRPGASVKLSCKTSGYIFTSYWIHWIKQRSGQGLEWIARIYPGTGSTYNNEKFKGKATLTADKSSSTAYMQLSSLKSEDSAVYFCARGEDNLYFYAMDYWGQGTSVTVSS VL: NIVLTQSPASLAVSLGQRATISCRASESVDSYGASFMHWCQQKPGQPPKLLIYLASNLESGVPARFSGSGSRTDFTLTIDPVEADDAATYYCQQNYEDPWTFGGGTKLEIK
Outgoing: 33.2

Incoming: IC50 lookup needed for 1035709 (antibody, V domains shown) VH: EVQLQQSGPELVKPGASVKISCKTSGYTFTEYTMHWVKQSHGKSLEWIGGINPNIVDTGYNQKFKGKATLTVDKSSSTAYMELRSLTSEDSAVYYCARDGYPLYYAMDYWGQGTSVTVSS VL: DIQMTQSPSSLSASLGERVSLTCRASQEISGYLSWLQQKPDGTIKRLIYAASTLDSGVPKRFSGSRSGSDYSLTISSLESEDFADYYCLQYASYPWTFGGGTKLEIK , thanks.
Outgoing: 2.33
